tested on: PRMT1 (protein arginine N-methyltransferase 1); assay: PRMT1 binders on small-molecule microarrays, primary screen, biochemical, small-molecule microarray, 635 nm fluorescence (AID 1088); settings: small-molecule microarray binding, higher = more signal
measurement.name: composite z-score
A bare number is all that is needed in reply.

# example entries with known answers
>  <compound>
C=CC[C@]1(C(=O)NCC(O)CO)N=C(c2ccc(OCCCO)cc2)O[C@H]1c1ccccc1CN=[N+]=[N-] (stereo partly drawn)

>  <measurement.name>
composite z-score

>  <reading>
1.01

$$$$
>  <compound>
CN1C(=O)C2C=CC(C(O)COCc3ccccc3)N(Nc3ccc([N+](=O)[O-])cc3[N+](=O)[O-])C2C1=O (stereo not drawn)

>  <measurement.name>
composite z-score

>  <reading>
0.332

$$$$
>  <compound>
Cc1ccc(S[C@]2(C(=O)NC(C)C)CC(=O)N(Cc3ccccc3)[C@@H]2c2ccc(CO)cc2I)cc1

>  <measurement.name>
composite z-score

>  <reading>
1.46

$$$$

From here, focus on the item given below.
Task: Suppose we examine the compound C=CCC(OC(C)=O)[C@@H]1[C@@H](N(Cc2cccc3ccccc23)C(=O)c2ccc(C)cc2)c2cc(OCCCO)ccc2N1C(=O)Cc1ccc2ccccc2c1 (stereo partly drawn) ; what composite z-score value has been reported?
Output: -0.52
